Data credit: patent US9302999B2

- Tested on: barnyardgrass (Echinochloa crus-galli)
- assay_procedure: Test A pre-/postemergence: barnyardgrass
- Assay type: in vivo
- condition_parameters: Postemergence, 125 g ai/ha; 0 to 100 scale, 0 is no effect, 100 is complete control
Label MET when Barnyardgrass plant response rating < 30; otherwise NOT MET.

Please review the entries below; each comes with its answer.
| structure_smiles | tested_on | class_name |
| --- | --- | --- |
| COc1nn(-c2ccc(C(F)(F)F)cc2)nc1Cn1cnc(C(F)(F)F)n1 | barnyardgrass (Echinochloa crus-galli) | NOT MET |
| Cc1cnccc1Oc1nn(-c2ccc(F)cc2)nc1C | barnyardgrass (Echinochloa crus-galli) | MET |
| FC(F)Oc1nn(-c2ccc(C(F)(F)F)cc2)nc1Cc1ccnc(C(F)(F)F)c1 | barnyardgrass (Echinochloa crus-galli) | NOT MET |
| Cc1nn(-c2ccc(C(F)(F)F)cc2)nc1Oc1cccc(C(F)(F)F)c1 | barnyardgrass (Echinochloa crus-galli) | MET |
| Cc1nn(-c2ccc(C(F)(F)F)c(F)c2)nc1Oc1ccnc(C(F)(F)F)c1 | barnyardgrass (Echinochloa crus-galli) | NOT MET |

Note: attention shifts to another entry.
Strictly below 30 in Barnyardgrass plant response rating? `COc1nn(-c2ccc(F)cc2)nc1C(=O)c1ccnc(C(F)(F)F)c1`
MET

* * *

- Tested on: barnyardgrass (Echinochloa crus-galli)
- assay_procedure: Test A pre-/postemergence: barnyardgrass
- Format: in vivo
- condition_parameters: Postemergence, 125 g ai/ha; 0 to 100 scale, 0 is no effect, 100 is complete control
# if value of Plant response rating, Barnyardgrass reaches 70, tag 1; if it stays below, tag -1

Please review the entries below; each comes with its answer.
| structure_smiles | class_name |
| --- | --- |
| CC(C)(C)c1nn(-c2ccc(F)cc2)nc1Cc1ccnc(C(F)(F)F)c1 | -1 |
| CCCc1nn(-c2ccc(F)c(F)c2)nc1Oc1ccnc(C(F)(F)F)c1 | 1 |
| CCCc1nn(-c2ccc(F)cc2)nc1Oc1ccnc(C(F)(F)F)c1 | 1 |
| CCOc1nn(-c2ccc(Cl)cc2)nc1Cc1ccnc(C(F)(F)F)c1 | 1 |
| CCc1nn(-c2ccc(F)c(C(F)(F)F)c2)nc1Oc1ccnc(C(F)(F)F)c1 | -1 |

Test whether the molecule `CC(C)COc1nn(-c2ccc(C(F)(F)F)cc2)nc1Cc1ccnc(C(F)(F)F)c1` records Plant response rating, Barnyardgrass of 70 or higher.
-1

* * *

- Tested on: large crabgrass (Digitaria sanguinalis)
- assay_procedure: Test C pre-/postemergence: large crabgrass
- Format: in vivo
- condition_parameters: Postemergence, 125 g ai/ha; scale 0 to 100, 0 no effect, 100 complete control
Items are presented alongside their recorded Plant response rating, Crabgrass, Large.
Reply: number alone, nothing else.

Below, 7 compounds whose answers are already recorded.
| structure_smiles | Plant response rating, Crabgrass, Large |
| --- | --- |
| CCc1nn(-c2ccc(F)c(F)c2)nc1Oc1ccnc(C(F)(F)F)c1 | 40 |
| COc1nn(-c2cccc(F)c2)nc1Cc1ccnc(C(F)(F)F)c1 | 55 |
| CCc1nn(-c2ccc(C(F)(F)F)cc2)nc1Cc1ccnc(C(F)(F)F)c1 | 75 |
| FCc1nn(-c2ccc(F)cc2)nc1Oc1ccnc(C(F)(F)F)c1 | 40 |
| FC(F)(F)COc1nn(-c2ccc(C(F)(F)F)cc2)nc1Cc1ccnc(C(F)(F)F)c1 | 45 |
| Fc1ccc(-n2nc(Cc3ccnc(C(F)(F)F)c3)c(OC(F)F)n2)cc1 | 40 |
| CCCc1nn(-c2ccc(C(F)(F)F)cc2)nc1Oc1ccnc(C(F)(F)F)c1 | 80 |

Field: next compound
If you can, please state the reported Plant response rating, Crabgrass, Large value of `CCc1nn(-c2ccc(C(F)(F)F)c(F)c2)nc1Oc1ccnc(C(F)(F)F)c1` .
35
